Reported PI3KA_Act Ki is given for each of the following compounds.
Target: truncated PI3Kα (p110α/iSH2 p85α) (Homo sapiens (Human), UniProt P42336)
Sequence (P42336 whole entry, the tested form may be a part): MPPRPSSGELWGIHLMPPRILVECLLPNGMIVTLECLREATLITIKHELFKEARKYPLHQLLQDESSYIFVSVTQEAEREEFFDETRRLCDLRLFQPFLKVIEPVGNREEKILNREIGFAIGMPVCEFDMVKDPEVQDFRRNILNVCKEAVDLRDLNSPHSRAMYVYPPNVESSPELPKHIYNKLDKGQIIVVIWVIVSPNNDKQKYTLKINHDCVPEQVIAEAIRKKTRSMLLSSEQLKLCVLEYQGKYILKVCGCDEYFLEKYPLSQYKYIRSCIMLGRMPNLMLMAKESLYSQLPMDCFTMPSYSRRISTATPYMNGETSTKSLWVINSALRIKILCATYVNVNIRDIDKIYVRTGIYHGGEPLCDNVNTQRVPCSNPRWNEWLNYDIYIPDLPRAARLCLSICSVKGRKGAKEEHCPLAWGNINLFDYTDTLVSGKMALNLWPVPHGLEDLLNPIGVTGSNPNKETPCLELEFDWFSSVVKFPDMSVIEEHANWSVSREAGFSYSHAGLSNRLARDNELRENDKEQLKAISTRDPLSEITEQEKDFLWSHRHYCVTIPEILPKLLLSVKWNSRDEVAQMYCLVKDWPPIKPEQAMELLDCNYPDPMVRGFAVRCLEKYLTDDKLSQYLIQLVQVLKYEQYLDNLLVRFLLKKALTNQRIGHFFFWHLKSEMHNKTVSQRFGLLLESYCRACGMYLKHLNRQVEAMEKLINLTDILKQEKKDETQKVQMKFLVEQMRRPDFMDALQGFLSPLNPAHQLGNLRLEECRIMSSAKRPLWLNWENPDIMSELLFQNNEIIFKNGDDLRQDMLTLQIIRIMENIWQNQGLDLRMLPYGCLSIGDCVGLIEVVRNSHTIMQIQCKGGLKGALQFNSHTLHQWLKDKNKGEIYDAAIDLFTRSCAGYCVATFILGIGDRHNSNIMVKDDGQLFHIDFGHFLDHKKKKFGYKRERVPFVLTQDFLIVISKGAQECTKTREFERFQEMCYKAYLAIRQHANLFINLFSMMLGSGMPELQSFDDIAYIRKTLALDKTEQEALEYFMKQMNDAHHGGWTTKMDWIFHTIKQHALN
Experiment: PI3KA_Act fluorescence polarization kinase assay (Ki)
Format: biochemical
Settings: 1 mM ATP
Report the figure in nM without appending any unit label.

Would you please look over these solved cases?
1. CC(C)S(=O)(=O)N1CC[C@H](N2CCc3c(-c4cnc(N)nc4)nc(N4CCOC[C@@H]4C)nc32)C1 [Example 131] : 0.044
2. C[C@H]1COCCN1c1nc(-c2cnc(N)nc2)c2c(n1)N(C1(C)CN(S(N)(=O)=O)C1)CC2 [Example 219] : 0.037
3. CNS(=O)(=O)N1CC[C@@H](N2CCc3c(-c4cnc(N)nc4)nc(N4CCOC[C@@H]4C)nc32)C1 [Example 92] : 0.376

Prompt line: Complete the entry with PI3KA_Act Ki for CC(C)(C)NC(=O)N1CC[C@@](C)(N2CCc3c(-c4cnc(N)nc4)nc(N4CCOCC4)nc32)C1 [Example 396]
Response line: 0.121

Prompt line: Complete the entry with PI3KA_Act Ki for C[C@]1(N2CCc3c(-c4cnc(N)nc4)nc(N4CCOCC4)nc32)CCN(C2CCCNC2=O)C1 (single isomer, unassigned) [Example 429]
Response line: 0.160
